Below, each of the molecules is paired with its reported pIC50 value.
# Tested System: NLRP3 inflammasome (Homo sapiens (Human), UniProt Q96P20)
# Sequence (Q96P20 whole entry): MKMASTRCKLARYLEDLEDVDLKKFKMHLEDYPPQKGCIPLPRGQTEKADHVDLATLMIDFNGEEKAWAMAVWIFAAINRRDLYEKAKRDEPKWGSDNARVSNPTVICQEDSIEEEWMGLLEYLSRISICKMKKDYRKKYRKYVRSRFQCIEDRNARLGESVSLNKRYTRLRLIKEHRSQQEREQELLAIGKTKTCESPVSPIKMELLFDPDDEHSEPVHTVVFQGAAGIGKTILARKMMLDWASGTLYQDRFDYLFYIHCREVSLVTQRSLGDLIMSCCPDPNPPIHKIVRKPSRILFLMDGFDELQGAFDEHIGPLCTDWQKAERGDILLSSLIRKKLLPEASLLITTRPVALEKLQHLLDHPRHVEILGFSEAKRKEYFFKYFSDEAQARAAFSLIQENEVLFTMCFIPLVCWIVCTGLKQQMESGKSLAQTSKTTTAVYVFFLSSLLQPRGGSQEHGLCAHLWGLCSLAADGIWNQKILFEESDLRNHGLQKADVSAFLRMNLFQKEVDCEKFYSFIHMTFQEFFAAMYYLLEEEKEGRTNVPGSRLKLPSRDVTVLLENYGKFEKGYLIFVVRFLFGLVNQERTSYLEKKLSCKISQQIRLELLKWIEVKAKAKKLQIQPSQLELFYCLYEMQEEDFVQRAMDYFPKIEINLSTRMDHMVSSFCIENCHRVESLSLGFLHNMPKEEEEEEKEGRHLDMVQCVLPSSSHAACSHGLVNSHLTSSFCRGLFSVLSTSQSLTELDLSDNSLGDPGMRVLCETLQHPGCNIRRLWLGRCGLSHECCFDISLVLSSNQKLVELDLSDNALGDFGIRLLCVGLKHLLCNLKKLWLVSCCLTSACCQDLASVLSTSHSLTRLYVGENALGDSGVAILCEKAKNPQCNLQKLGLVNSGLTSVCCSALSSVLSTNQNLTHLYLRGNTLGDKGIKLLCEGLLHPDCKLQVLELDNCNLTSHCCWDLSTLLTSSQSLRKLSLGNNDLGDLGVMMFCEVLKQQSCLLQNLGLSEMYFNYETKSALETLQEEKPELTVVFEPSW
# Assay Protocol: Evaluation of NLRP3 inflammasome inhibitory activity (inhibition of IL-1β production in LPS/Nigericin-stimulated THP1-Null cells)
# Conditions: IL-1β production in THP1-Null cells, PMA, LPS 1 μg/mL, Nigericin 7.5 μmol/L, AlphaLISA
Reminder that pIC50 is minus the log10 of a molar concentration.

Here's what some known entries look like.
Cc1cc(Cl)ccc1-n1cc2c(=O)[nH]c(N3CCCC3)nc2n1 [Example 95]    8.28
COc1ccc(-n2cc3c(=O)[nH]c(N4CCCC4)nc3n2)c(C)c1 [Example 171]    7.54

Query: Requested field: pIC50. Item: Cc1cc(Br)cc(C)c1-n1cc2c(=O)[nH]c(N3CCOCC3=O)nc2n1 [Example 353]
Result: 7.12

Query: # iterate: O=c1[nH]c(N2CCCC2)nc2nn(-c3ccc(C(F)(F)F)cc3)cc12 [Example 49]
Result: 6.47

---

Below, each of the molecules is paired with its reported pIC50 value.
# Tested System: NLRP3 inflammasome (Homo sapiens (Human), UniProt Q96P20)
# Assay Protocol: Evaluation of NLRP3 inflammasome inhibitory activity (inhibition of IL-1β production in LPS/Nigericin-stimulated THP1-Null cells)
# Conditions: IL-1β production in THP1-Null cells, PMA, LPS 1 μg/mL, Nigericin 7.5 μmol/L, AlphaLISA
Reminder that pIC50 is minus the log10 of a molar concentration.

Cc1ccccc1-n1cc2c(=O)[nH]c(N3CCC(C#N)C3)nc2n1 (racemic) [Example 26]    5.89

Query: Requested field: pIC50. Item: Cc1cc(Br)cc(C)c1-n1cc2c(=O)[nH]c(NCCOCCO)nc2n1 [Example 360]
Result: 8.21

Query: # iterate: Cc1cc(C)c(-n2cc3c(=O)[nH]c(N4CCC5(CC4)COC5)nc3n2)c(C)c1 [Example 118]
Result: 7.36

Query: # iterate: CO[C@H]1CCN(c2nc3nn(-c4c(C)cc(Br)cc4C)cc3c(=O)[nH]2)C1 [Example 318]
Result: 7.49

---

# Tested System: NLRP3 inflammasome (Homo sapiens (Human), UniProt Q96P20)
# Assay Protocol: Evaluation of NLRP3 inflammasome inhibitory activity (inhibition of IL-1β production in LPS/Nigericin-stimulated THP1-Null cells)
# Assay type: cell-based
# Conditions: IL-1β production in THP1-Null cells; test compound 0.0024 μM
Assay Readout: inhibition at 0.0024 µM
In your response, put the unit directly after the numeric value.

Here's what some known entries look like.
Cc1cc(C2CC2)cc(C)c1-n1cc2c(=O)[nH]c(N3CCN(S(C)(=O)=O)CC3)nc2n1 [Example 125]    52%
Cc1cc(Br)cc(C)c1-n1cc2c(=O)[nH]c(NCCO)nc2n1 [Example 359]    69%

Proceed to the following item.
Query: Requested field: inhibition at 0.0024 µM. Item: Cc1cc(Br)cc(C)c1-n1cc2c(=O)[nH]c(NC(C)C)nc2n1 [Example 235]
Result: 52%

---

# Tested System: UniProt:Q96P20
# Assay Protocol: Evaluation of NLRP3 inflammasome inhibitory activity (inhibition of IL-1β production in LPS/Nigericin-stimulated THP1-Null cells)
# Conditions: IL-1β production in THP1-Null cells, PMA, LPS 1 μg/mL, Nigericin 7.5 μmol/L, AlphaLISA
Assay Readout: IC50 (nM)
Please give a number only; it is taken to be in nM.

Here's what some known entries look like.
Cc1cc(C)c(-n2cc3c(=O)[nH]c(N4CC5C(C4)C5(F)F)nc3n2)c(C)c1 (centres unmarked)    27
O=c1[nH]c(N2C[C@@H]3C[C@H]2CO3)nc2nn(-c3ccc(C4CC4)cc3C(F)(F)F)cc12    8.6
Cc1cccc(-n2cc3c(=O)[nH]c(N4CCCC4)nc3n2)c1C    230
CCC(C)n1nc(C)c(-n2cc3c(=O)[nH]c(N4CCCC4)nc3n2)c1C (racemic)    920

Proceed to the following item.
Query: Requested field: IC50. Item: O=c1[nH]c(N2CCOCC2)nc2nn(-c3ccc(C4CC4)cc3OC(F)(F)F)cc12
Result: 14

---

# Tested System: NLRP3 inflammasome (Homo sapiens (Human), UniProt Q96P20)
# Assay Protocol: Evaluation of NLRP3 inflammasome inhibitory activity (inhibition of IL-1β production in LPS/Nigericin-stimulated THP1-Null cells)
# Conditions: IL-1β production in THP1-Null cells, PMA, LPS 1 μg/mL, Nigericin 7.5 μmol/L, AlphaLISA
Below, each of the compounds is paired with its reported pIC50 value.
Reminder that pIC50 is minus the log10 of a molar concentration.

Here's what some known entries look like.
COC1CCN(c2nc3nn(-c4c(C)cc(C)cc4C)cc3c(=O)[nH]2)CC1    7.02
Cc1ccccc1-n1cc2c(=O)[nH]c(N3CCOCC3C)nc2n1 (racemic)    5.55
Cc1cc(C)c(-n2cc3c(=O)[nH]c(N4CCOCC4)nc3n2)c(Cl)c1    7.72
Cc1ccccc1-n1cc2c(=O)[nH]c(N3CCC3)nc2n1    5.89
Cc1cc(C(F)(F)F)cc(C)c1-n1cc2c(=O)[nH]c(N3CCOCCO3)nc2n1    7.55
CC(=O)N1CCN(c2nc3nn(-c4ccc(Br)cc4C)cc3c(=O)[nH]2)CC1    8.09

Query: Requested field: pIC50. Item: Cc1cc(C(F)F)cc(C)c1-n1cc2c(=O)[nH]c(N3C[C@H]4C[C@@H]3CO4)nc2n1
Result: 7.10

Query: # iterate: O=c1[nH]c(N2CCOCC2)nc2nn(-c3ncc(C(F)(F)F)cc3Br)cc12
Result: 6.72

Query: # iterate: CC(=O)N1CCCN(c2nc3nn(-c4ccc(C(F)(F)F)cc4Cl)cc3c(=O)[nH]2)CC1
Result: 7.04

Query: # iterate: Cc1cc(C2CC2)cc(C)c1-n1cc2c(=O)[nH]c(N3CCOCCO3)nc2n1
Result: 7.72

Query: # iterate: Cc1cc(C2CC2)cc(C)c1-n1cc2c(=O)[nH]c(N3CCOC[C@H]3C)nc2n1
Result: 8.07

Query: # iterate: Cc1cc(Br)cc(C)c1-n1cc2c(=O)[nH]c(N3CCOC4CC43)nc2n1 (racemic)
Result: 8.00

Query: # iterate: COC1CCN(c2nc3nn(-c4ccc(C)cc4C)cc3c(=O)[nH]2)C1 (racemic)
Result: 6.72

---

# Tested System: NLRP3 inflammasome (Homo sapiens (Human), UniProt Q96P20)
# Assay Protocol: Evaluation of NLRP3 inflammasome inhibitory activity (inhibition of IL-1β production in LPS/Nigericin-stimulated THP1-Null cells)
# Conditions: IL-1β production in THP1-Null cells, PMA, LPS 1 μg/mL, Nigericin 7.5 μmol/L, AlphaLISA
We label by threshold. Values of IC50 strictly beneath 40 nM are true (1). Values of 40 nM and up are false (0).

These solved cases illustrate the format of a correct answer.
Cc1cc(Br)cc(C)c1-n1cc2c(=O)[nH]c(NCCF)nc2n1 [Example 267]    true (1)
Cc1c(-n2cc3c(=O)[nH]c(N4CCCC4)nc3n2)c(C(F)(F)F)nn1C(C)C [Example 346]    false (0)
CCOc1cc(Br)ccc1-n1cc2c(=O)[nH]c(N3CCOCC3)nc2n1 [Example 302]    false (0)
Cc1cc(C2CC2)cc(C)c1-n1cc2c(=O)[nH]c(N3CCCCO3)nc2n1 [Example 333]    false (0)
Cc1cc(N2CCC2)cc(C)c1-n1cc2c(=O)[nH]c(N3CCOCC3)nc2n1 [Example 327]    false (0)

Query: Answer whether the compound CCc1cc(C)c(-n2cc3c(=O)[nH]c(N4CCOCC4)nc3n2)c(C)c1 [Example 292] has IC50 strictly less than 40 nM
Result: true (1)

Query: # iterate: Cc1cc(Br)cc(C)c1-n1cc2c(=O)[nH]c(N3CC4COC(C4)C3)nc2n1 (racemic) [Example 279]
Result: true (1)

Query: # iterate: Cc1cc(CC(F)F)cc(C)c1-n1cc2c(=O)[nH]c(N3CCOCCO3)nc2n1 [Example 358]
Result: false (0)

Query: # iterate: Cc1cc(Br)cc(C)c1-n1cc2c(=O)[nH]c(N3CC4CC3C4)nc2n1 (racemic) [Example 217]
Result: true (1)

Query: # iterate: Cc1ccccc1-n1cc2c(=O)[nH]c(N3CCC(F)(F)C3)nc2n1 [Example 12]
Result: false (0)

Query: # iterate: COCCOc1nc(N2CCOCC2)nc2nn(-c3ccc(Br)cc3C)cc12 [Example 154]
Result: false (0)

Query: # iterate: Cn1c(N2CC3CC(C2)O3)nc2nn(-c3ccc(C4CC4)cc3C(F)(F)F)cc2c1=O [Example 313]
Result: false (0)
